Reference for the values: patent US20250019385A1

test system: Ba/F3 cells KRAS G12C; assay: Ba/F3 proliferation assay (KRAS G12C); format: cell-based; conditions: Mus musculus, BaF3, 72 h, AlamarBlue viability
measured property: pIC50
pIC50 here: minus log base 10 of the concentration, concentration in moles per litre.

C[C@H](Oc1nc(-c2onc3c2CCC[C@@]32CCCc3sc(N)c(C#N)c32)nc2c1n(C)c(=O)n2C1COC1)[C@@H]1CCCN1C 7.23
COCCn1c(=O)n([C@@H]2CCOC2)c2nc(-c3onc4c3CCC[C@@]43CCCc4sc(N)c(C#N)c43)nc(O[C@@H](C)[C@@H]3CCCN3C)c21 7.82

Next:
Inquiry: Identify pIC50 associated with the compound C[C@H](Oc1nc(-c2onc3c2CCC[C@@]32CCCc3sc(N)c(C#N)c32)nc2c1n(C)c(=O)n2[C@@H]1CCOC1)[C@@H]1[C@@H](F)CCN1C
Reply text: 7.51

====

Attribute: IC50
system: NCI-H358 cells; test: NCI-H358 CTG proliferation assay (120 h) (NSCLC, G12C); assay type: cell-based; details: Homo sapiens

Answered cases to consult:
compound	subject of test	IC50
CO[C@@H]1C[C@@H]([C@H](C)Oc2nc(-c3noc4c3CCC[C@@]43CCCc4sc(N)c(C#N)c43)nc3c2COC[C@]32CCOC2)N(C)C1	NCI-H358 cells	3 nM
CO[C@H]1CCN(C)[C@@H]1[C@H](C)Oc1nc(-c2onc3c2CCC[C@@]32CCCc3sc(N)c(C#N)c32)nc2c1CN(C1COC1)C[C@]21CCOC1	NCI-H358 cells	4 nM
C[C@H](Oc1nc(-c2noc3c2CCC[C@@]32SCCc3sc(N)c(C#N)c32)nc2c1COC[C@]21CCOC1)[C@@H]1CCCN1C	NCI-H358 cells	1 nM
CCn1c(=O)n([C@@H]2CCCOC2)c2nc(-c3onc4c3CCC[C@@]43CCCc4sc(N)c(C#N)c43)nc(O[C@@H](C)[C@@H]3CCCN3C)c21	NCI-H358 cells	7 nM
C[C@H](Oc1nc(-c2onc3c2CCC[C@@]32CCCc3sc(N)c(C#N)c32)nc2c1n(C)c(=O)n2[C@@H]1CCOC1)[C@@H]1CCCN1C	NCI-H358 cells	4 nM
CCn1c(=O)n([C@@H]2CCCOC2)c2nc(-c3onc4c3CCC[C@@]43CCCc4sc(N)c(C#N)c43)nc(OCC34CCCN3CCC4)c21	NCI-H358 cells	475 nM

Inquiry: Identify IC50 associated with the compound CO[C@H]1C[C@@H]([C@H](C)Oc2nc(-c3onc4c3CCC[C@@]43CCCc4sc(N)c(C#N)c43)nc3c2n(C)c(=O)n3[C@@H]2CCOC2)N(C)C1
Reply text: 43 nM

Inquiry: Identify IC50 associated with the compound C[C@H](Oc1nc(-c2onc3c2CCC[C@@]32CCCc3sc(N)c(C#N)c32)nc2c1n(C)c(=O)n2[C@H]1CCOC1)[C@@H]1CCCN1C
Reply text: 52 nM

Inquiry: Identify IC50 associated with the compound CCn1c(=O)n([C@@H]2CCOC2)c2nc(-c3onc4c3CCC[C@@]43CCCc4sc(N)c(C#N)c43)nc(O[C@@H](C)[C@@H]3CCCN3C)c21
Reply text: 3 nM

Inquiry: Identify IC50 associated with the compound CO[C@H]1CCN(C)[C@@H]1[C@H](C)Oc1nc(-c2onc3c2CCC[C@@]32CCCc3sc(N)c(C#N)c32)nc2c1n(C)c(=O)n2[C@@H]1CCCOC1
Reply text: 4 nM

Inquiry: Identify IC50 associated with the compound C[C@H](Oc1nc(-c2onc3c2CCC[C@@]32CCCc3sc(N)c(C#N)c32)nc2c1n(C)c(=O)n2[C@H]1CC2CCC1O2)[C@@H]1CCCN1C (some centres unmarked)
Reply text: 20 nM

====

biological target: KRAS (G12V)::CRAF protein::protein interaction (Homo sapiens (Human), UniProt P01116, C118S/G12V); experiment: KRAS TR-FRET assay (KRAS G12V::CRAF, GTP)
Sequence (P01116 other isoform, or with tags, fused parts or gaps G12V/C118S): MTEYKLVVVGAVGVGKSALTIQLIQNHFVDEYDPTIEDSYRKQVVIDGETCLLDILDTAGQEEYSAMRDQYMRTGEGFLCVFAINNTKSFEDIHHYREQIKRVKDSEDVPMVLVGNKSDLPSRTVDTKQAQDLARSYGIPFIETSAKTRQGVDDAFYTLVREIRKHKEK
measured property: pIC50
pIC50 here: minus log base 10 of the concentration, concentration in moles per litre.

C[C@H](Oc1nc(-c2noc3c2CCC[C@@]32CCCc3sc(N)c(C#N)c32)nc2c1CNC[C@]21CCOC1)[C@@H]1CCCN1C 7.77
C[C@H](Oc1nc(-c2onc3c2CCC[C@@]32CCCc3sc(N)c(C#N)c32)nc2c1ncn2[C@@H]1CCOC1)[C@@H]1CCCN1C 7.15
C[C@H](Oc1nc(-c2noc3c2CCC[C@@]32CCCc3sc(N)c(C#N)c32)nc2c1cnn2[C@@H]1CCOC1)[C@@H]1CCCN1C 7.30
CO[C@@H]1C[C@@H]([C@H](C)Oc2nc(-c3onc4c3CCC[C@@]43CCCc4sc(N)c(C#N)c43)nc3c2n(C)c(=O)n3[C@@H]2CCOC2)N(C)C1 7.16
C[C@H](Oc1nc(-c2noc3c2CCC[C@@]32CCCc3sc(N)c(C#N)c32)nc2c1CCO[C@]21CCOC1)[C@@H]1CCCN1C 7.46
C[C@H](Oc1nc(-c2onc3c2CCC[C@@]32CCCc3sc(N)c(C#N)c32)nc2c1[nH]c(=O)n2[C@@H]1CCOC1)[C@@H]1CCCN1C 7.70

Inquiry: Identify pIC50 associated with the molecule Cc1cc2c(O[C@@H](C)[C@@H]3CCCN3C)nc(-c3onc4c3CCC[C@@]43CCCc4sc(N)c(C#N)c43)nc2n1[C@@H]1CCOC1
Reply text: 6.92

Inquiry: Identify pIC50 associated with the molecule C[C@H](Oc1nc(-c2noc3c2CCC[C@@]32CCCc3sc(N)c(C#N)c32)nc2c1CC[C@]21CNCCO1)[C@@H]1C[C@@H](F)CN1C
Reply text: 6.89

Inquiry: Identify pIC50 associated with the molecule CCn1c(=O)n([C@@H]2CCOC2)c2nc(-c3onc4c3CCC[C@@]43CCCc4sc(N)c(C#N)c43)nc(O[C@@H](C)[C@@H]3CCCN3C)c21
Reply text: 7.43

====

assay: Plasma protein binding assay (PPB), equilibrium dialysis; format: in vitro ADME; details: bovine, 10% FCS in PBS, read-out: PPB 10% FCS (% fu)
Lab note: anything with fraction unbound at or over 0.2 counts as true (1); the rest go in false (0).

These solved cases illustrate the format of a correct answer.
molecule	discrete label
Cc1nc2c(O[C@@H](C)[C@@H]3CCCN3C)nc(-c3onc4c3CCC[C@@]43CCCc4sc(N)c(C#N)c43)nc2n1[C@@H]1CCOC1 [I-39]	true (1)
C[C@H](Oc1nc(-c2onc3c2CCC[C@@]32CCCc3sc(N)c(C#N)c32)nc2c1n(C)c(=O)n2[C@@H]1CCOC1)[C@@H]1C[C@@H](F)CN1C [I-22]	false (0)
C[C@H](Oc1nc(-c2onc3c2CCC[C@@]32CCCc3sc(N)c(C#N)c32)nc2c1n(C)c(=O)n2[C@H]1CC2CCC1O2)[C@@H]1CCCN1C (stereo partly drawn) [I-17]	false (0)
C[C@H](Oc1nc(-c2noc3c2CCC[C@@]32CCCc3sc(N)c(C#N)c32)nc2c1COC[C@]21CCOC1)[C@@H]1CCCN1C [II-8]	false (0)
C[C@H](Oc1nc(-c2onc3c2CCC[C@@]32CCCc3sc(N)c(C#N)c32)nc2c1n(C)c(=O)n2[C@@H]1CCOC1)[C@@H]1C[C@@H]2C[C@@H]2N1C [I-28]	false (0)
COCCn1c(=O)n(C)c2c(O[C@@H](C)[C@@H]3CCCN3C)nc(-c3onc4c3CCC[C@@]43CCCc4sc(N)c(C#N)c43)nc21 [I-7]	true (1)
CCn1c(=O)n([C@@H]2CCOC2)c2nc(-c3onc4c3CCC[C@@]43CCCc4sc(N)c(C#N)c43)nc(O[C@@H](C)[C@@H]3CCCN3C)c21 [I-21]	false (0)
CO[C@@H]1C[C@@H]([C@H](C)Oc2nc(-c3noc4c3CCC[C@@]43CCCc4sc(N)c(C#N)c43)nc3c2CN(C2COC2)C[C@]32CCOC2)N(C)C1 [II-14]	false (0)
C[C@H](Oc1nc(-c2onc3c2CCC[C@@]32CCCc3sc(N)c(C#N)c32)nc2c1n(C)c(=O)n2[C@@H]1CCOC1)[C@@H]1[C@H](F)CCN1C [I-4]	false (0)
CO[C@H]1C[C@@H]([C@H](C)Oc2nc(-c3onc4c3CCC[C@@]43CCCc4sc(N)c(C#N)c43)nc3c2n(C)c(=O)n3[C@@H]2CCOC2)N(C)C1 [I-2]	false (0)

Inquiry: Tell me whether fraction unbound is at least 0.2 here: C[C@@H]1COC[C@H](n2c(=O)n(C)c3c(O[C@@H](C)[C@@H]4CCCN4C)nc(-c4onc5c4CCC[C@@]54CCCc5sc(N)c(C#N)c54)nc32)C1 [I-44]
Reply text: false (0)

Inquiry: Tell me whether fraction unbound is at least 0.2 here: C[C@H](Oc1nc(-c2noc3c2CCC[C@@]32CCCc3sc(N)c(C#N)c32)nc2c1CN(C1COC1)C[C@]21CCOC1)[C@@H]1CCCN1C [II-12]
Reply text: false (0)

Inquiry: Tell me whether fraction unbound is at least 0.2 here: C[C@H](Oc1nc(-c2onc3c2CCC[C@@]32CCCc3sc(N)c(C#N)c32)nc2c1n(C)c(=O)n2[C@@H]1CCOC1)[C@@H]1CCCN1C [I-20]
Reply text: true (1)
